- Assay Explanation: Determination of S from retention time shift Δ relative to P3 at two gradient slopes, nano-RP-HPLC MS of spiked tryptic digest
- Format: physicochemical
- Experimental Parameters: experimental S value, LC-MS runs of model peptide mixture

{"columns": ["Substance", "Slope (experimental)"],
 "data": [
  ["GLIDEVDQDFTSR", 30.089],
  ["IIPLNR", 28.596],
  ["TSDANINWNNLK", 30.109],
  ["CCTESLVNR", 33.998],
  ["LFAYPDTHR", 31.897],
  ["DIQYLPILK", 25.291],
  ["APVDAFKECHLAQVPSHAVVAR", 46.264],
  ["MSTITGPVPR", 32.509],
  ["IPSKVDSALYLGSR", 35.773],
  ["NTPEKGYLAVAVVK", 34.392],
  ["NIVELMR", 24.282],
  ["LLEACTFHKP", 36.237],
  ["IQALLDK", 26.395],
  ["GGWTVIQNR", 26.957],
  ["LYKELPDPQESIQR", 39.098],
  ["KVIEQVQR", 43.582],
  ["QTALVELLK", 24.2],
  ["SNLQLLR", 24.614],
  ["VGDANPALQK", 38.388],
  ["RTPIAVR", 39.365],
  ["VPQVSTPTLVEVSR", 33.745],
  ["CLASIAK", 30.212],
  ["LKPDPNTLCDEFK", 36.757],
  ["KPVTDAENCHLAR", 48.023],
  ["IQALLDKYNEEKPKN", 40.038],
  ["LRPVAAEIYGTK", 34.815],
  ["RHPYFYAPELLYYANK", 35.968],
  ["LVTDLTK", 28.077],
  ["EYEATLEECCAK", 35.459],
  ["LLSAADFR", 25.969],
  ["LLSLLDFR", 24.464],
  ["DTDFKLNELR", 30.459],
  ["LGPNYLQIPVNCPYR", 32.953],
  ["NWIQYK", 26.629],
  ["TSDANINWNNLKDKK", 39.525],
  ["NLRETAEEVK", 40.778],
  ["LLSLLHFR", 28.039],
  ["QNQVQDNENWNEYSSHLEK", 40.065],
  ["GSNFQLDQLQGR", 30.314],
  ["VIEQVQR", 38.258],
  ["MKGLIDEVDQDFTSR", 33.2],
  ["MEDEAESLEDLGFK", 29.603],
  ["VVQLEANCQEPCQDTVK", 39.579],
  ["LGAPSITCVR", 32.708],
  ["LASAADFR", 29.663],
  ["EPYFGYSGAFK", 28.713],
  ["ESGLYFIRPLK", 30.232],
  ["FPTIPLSR", 27.325],
  ["QFVSSSTTVNR", 37.462],
  ["IQALLDKYNEEKPK", 40.311],
  ["CLQDGAGDVAFVK", 31.382],
  ["VWPHGDYPLIPVGK", 34.183],
  ["LAHEDPDYGLR", 36.832],
  ["LVNELTEFAK", 27.906],
  ["LLVLAHFR", 28.115],
  ["LRDSLFNYQK", 31.66],
  ["LLVAAHFR", 31.212],
  ["HLVDEPQNLIK", 35.894],
  ["TYDSYLGDDYVR", 31.66],
  ["RPCFSALTPDETYVPK", 38.129],
  ["AAANFFSASCVPCADQSSFPK", 35.1],
  ["LLLGGDFR", 22.643],
  ["NFSDVHPEYGSR", 37.948],
  ["ISQLTNMGPTK", 33.29],
  ["LGEYGFQNALIVR", 29.764],
  ["LLHLAHFR", 33.837]
]}
